testSystem: HIV-1 protease (Human immunodeficiency virus type 1 group M subtype B, UniProt P04585)
measureName: IC50 (nM)
Write the answer as a number in nM, unit excluded.

Fill in: IC50 of CC(C)[C@H](NC(=O)[C@H](Cc1ccccc1)NC(=O)CC(C)(C)C)C(=O)N[C@@H](Cc1ccccc1)C1CO1 (stereo partly shown) [Example 46] is ___
5

====

IC50: recorded values
testSystem: HIV protease (Human immunodeficiency virus type 1 group M subtype B, UniProt P04585)
Construct: purified HIV protease was incubated with synthetic peptide
assayMethodText: HIV-specific protease enzyme test (RP-HPLC), compounds of formula (I)
conditions: purified HIV protease, synthetic Gag cleavage-site peptide, compounds of general formula (I)
Provide only the numeric value, understood in µM.

compound | testSystem | number
CCOP(=O)(OCC)C1CCCN1C[C@H](O)[C@H](CC1CCCCC1)NC(=O)OC(C)(C)C (mixture of isomers) [5 (non-polar)] | HIV protease (Human immunodeficiency virus type 1 group M subtype B, UniProt P04585) | 1

Please look at the following compound next.
Field: IC50 (HIV protease (Human immunodeficiency virus type 1 group M subtype B, UniProt P04585)). Entry: CCOP(=O)(OCC)C1CCCN1C[C@H](O)[C@H](CC1CCCCC1)NC(=O)OC(C)(C)C (mixture of isomers) [5 (polar)]
0.1
